biological target: T1, CT45-IP alanine variant, position 5 peptide on HLA-A*02:01 (human); test: killing
T1 peptide: KIFEALEGV

binder	binding result
TCR-5 (TCR, V domains shown) Valpha: QQLNQSPQSMFIQEGEDVSMNCTSSSIFNTWLWYKQDPGEGPVLLIALYKAGELTSNGRLTAQFGITRKDSFLNISASIPSDVGIYFCAGGYNYGQNFVFGPGTRLSVLP Vbeta: GVTQTPKHLITATGQRVTLRCSPRSGDLSVYWYQQSLDQGLQFLIQYYNGEERAKGNILERFSAQQFPDLHSELNLSSLELGDSALYFCASSAGLAGGYEQYFGPGTRLTVT	recognises
TCR-7 (TCR, V domains shown) Valpha: QTVTQSQPEMSVQEAETVTLSCTYDTSESDYYLFWYKQPPSRQMILVIRQEAYKQQNATENRFSVNFQKAAKSFSLKISDSQLGDAAMYFCTFRYGGATNKLIFGTGTLLAVQP Vbeta: GVIQSPRHLIKEKRETATLKCYPIPRHDTVYWYQQGPGQDPQFLISFYEKMQSDKGSIPDRFSAQQFSDYHSELNMSSLELGDSALYFCASRGGWAETPDTQYFGPGTRLTVL	recognises
TCR-4 (TCR, V domains shown) Valpha: QSVAQPEDQVNVAEGNPLTVKCTYSVSGNPYLFWYVQYPNRGLQFLLKYITGDNLVKGSYGFEAEFNKSQTSFHLKKPSALVSDSALYFCAAPRDDKIIFGKGTRLHILP Vbeta: GVTQTPKFRVLKTGQSMTLLCAQDMNHEYMYWYRQDPGMGLRLIHYSVGEGTTAKGEVPDGYNVSRLKKQNFLLGLESAAPSQTSVYFCASSYLRTGGNEQFFGPGTRLTVL	recognises
